Biological target: recombinant lumazine synthase of M. tuberculosis (Mycobacterium tuberculosis)
Assay: Kinetic assay of lumazine synthase inhibitors
Assay type: biochemical
Conditions: M. tuberculosis LS
OBSERVABLE: inhibitory activity against lumazine synthase (in words)

>>> df
                                   compound  experimental_value
0  O=C1Nc2ccc(S(=O)(=O)NCCO)c3cccc1c23 [Compound 31]    totally inactive
1  O=C1Nc2ccc(S(=O)(=O)NCCCCCO)c3cccc1c23 [Compound 33]    totally inactive
2  CCC(O)CNS(=O)(=O)c1ccc2c3c(cccc13)C(=O)N2 (centres unmarked) [Compound 32]    totally inactive

* * *

Biological target: recombinant lumazine synthase of M. tuberculosis (Mycobacterium tuberculosis, UniProt P9WHE9)
Sequence (P9WHE9 whole entry): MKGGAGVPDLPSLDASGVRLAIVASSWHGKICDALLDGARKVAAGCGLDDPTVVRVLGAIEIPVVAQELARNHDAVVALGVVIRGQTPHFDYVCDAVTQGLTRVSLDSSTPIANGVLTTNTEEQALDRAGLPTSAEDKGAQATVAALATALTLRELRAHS
Assay: Kinetic assay of lumazine synthase inhibitors
Assay type: biochemical
Conditions: LS; fit parameter of the inhibitor's data set
OBSERVABLE: Kcat (rate constant for ES ⇌ E + P) (m^−1)
Report the value in m^−1 with no unit label.

In [3]: df
Out[3]:
                                chem_smiles  experimental_value
0  O=C1Nc2ccc(S(=O)(=O)NCCCCCOP(=O)(O)O)c3cccc1c23                0.45
1  O=C1Nc2ccc(S(=O)(=O)NCCCOP(=O)(O)O)c3cccc1c23                0.45
2  O=C1Nc2ccc(S(=O)(=O)NCCCCOP(=O)(O)O)c3cccc1c23                0.44
3  O=C1Nc2ccc(S(=O)(=O)NCCOP(=O)(O)O)c3cccc1c23                0.41

Turning now to a further record.
Summary for this compound, CCOC(=O)C(=O)Nc1c(Cl)[nH]c(=O)[nH]c1=O : Kcat (rate constant for ES ⇌ E + P) is 0.61

* * *

Molecular target: recombinant riboflavin synthase of M. tuberculosis (Mycobacterium tuberculosis, UniProt P9WK35)
Sequence (P9WK35 whole entry): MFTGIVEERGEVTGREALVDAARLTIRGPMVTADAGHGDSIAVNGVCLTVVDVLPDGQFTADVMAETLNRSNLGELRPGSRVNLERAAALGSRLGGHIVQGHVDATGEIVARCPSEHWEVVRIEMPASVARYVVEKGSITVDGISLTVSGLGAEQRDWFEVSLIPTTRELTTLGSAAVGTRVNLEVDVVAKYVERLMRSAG
Test: Kinetic assay of riboflavin synthase inhibitors
Type: biochemical
Conditions: RS; pH 7.0, 27 °C
OBSERVABLE: Kis (inhibitor dissociation constant for ES + I ⇌ ESI)

The examples below pair each entry with its known result.
                                chem_smiles  experimental_value
0  O=C1Nc2ccc(S(=O)(=O)NCCCOP(=O)(O)O)c3cccc1c23           > 1000 µM
1  O=C1Nc2ccc(S(=O)(=O)NCCCCCOP(=O)(O)O)c3cccc1c23        971 ± 179 µM
2  O=C1Nc2ccc(S(=O)(=O)NCCOP(=O)(O)O)c3cccc1c23           > 1000 µM

The recorded Kis (inhibitor dissociation constant for ES + I ⇌ ESI) for CCOC(=O)C(=O)Nc1c(Cl)[nH]c(=O)[nH]c1=O is 897 ± 104 µM

Short answer for O=C1Nc2ccc(S(=O)(=O)NCCCCOP(=O)(O)O)c3cccc1c23 : Kis (inhibitor dissociation constant for ES + I ⇌ ESI) was > 1000 µM
